tested.on: TYK2 (Homo sapiens, UniProt P29597)
Sequence (P29597 whole entry): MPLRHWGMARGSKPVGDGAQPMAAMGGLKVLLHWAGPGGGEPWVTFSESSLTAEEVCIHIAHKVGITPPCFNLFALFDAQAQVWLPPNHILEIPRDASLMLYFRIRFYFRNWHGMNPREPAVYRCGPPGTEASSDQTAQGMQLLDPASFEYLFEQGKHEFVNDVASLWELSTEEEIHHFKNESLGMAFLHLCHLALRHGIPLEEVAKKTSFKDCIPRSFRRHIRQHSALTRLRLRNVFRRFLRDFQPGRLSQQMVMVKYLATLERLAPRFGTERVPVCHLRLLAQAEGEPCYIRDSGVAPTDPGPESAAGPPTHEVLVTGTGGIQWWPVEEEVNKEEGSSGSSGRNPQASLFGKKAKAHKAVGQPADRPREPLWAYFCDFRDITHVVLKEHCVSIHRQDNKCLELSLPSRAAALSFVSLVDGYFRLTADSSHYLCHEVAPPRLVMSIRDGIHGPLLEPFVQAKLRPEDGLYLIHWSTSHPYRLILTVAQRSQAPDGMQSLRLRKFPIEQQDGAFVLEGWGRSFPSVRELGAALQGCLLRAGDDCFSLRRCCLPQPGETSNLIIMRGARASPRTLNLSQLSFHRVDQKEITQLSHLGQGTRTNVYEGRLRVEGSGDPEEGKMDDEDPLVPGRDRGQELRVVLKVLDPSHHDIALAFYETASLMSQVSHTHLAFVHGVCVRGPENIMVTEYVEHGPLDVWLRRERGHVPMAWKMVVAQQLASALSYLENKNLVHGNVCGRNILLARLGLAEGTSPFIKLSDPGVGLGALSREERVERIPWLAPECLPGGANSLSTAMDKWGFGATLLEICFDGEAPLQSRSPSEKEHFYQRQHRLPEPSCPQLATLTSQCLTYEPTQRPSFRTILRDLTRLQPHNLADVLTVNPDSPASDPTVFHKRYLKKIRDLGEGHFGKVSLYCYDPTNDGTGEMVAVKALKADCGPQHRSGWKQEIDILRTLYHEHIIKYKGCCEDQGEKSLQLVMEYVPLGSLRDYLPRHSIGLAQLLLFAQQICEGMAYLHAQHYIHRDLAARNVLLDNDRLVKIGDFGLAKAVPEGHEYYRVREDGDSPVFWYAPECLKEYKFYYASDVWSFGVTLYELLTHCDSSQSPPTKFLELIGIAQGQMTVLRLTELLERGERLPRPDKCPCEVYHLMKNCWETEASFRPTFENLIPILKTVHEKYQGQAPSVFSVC
experiment: TYK2 degradation MSD assay in EBV-B cells
Assay type: cell-based
Parameters: endogenous in cells; host or cells: EBV-B cells
condition.parameters: 4 to 24 hours incubation, read-out: TYK2 MSD DC50 rating in EBV-B
Record form. Attribute: DC50. Fill in for each entry.

*Q* Consider the compound shown here: CNc1cc(Nc2cccn(-c3ccc(C(=O)NCCCCCCCCCCc4ccc5c(c4)n(C)c(=O)n5C4CCC(=O)NC4=O)cn3)c2=O)nn2c(C(=O)N[C@@H]3C[C@@H]3F)cnc12 (some centres unmarked) [Example K261] What is its recorded DC50?
*A* 1 to 10 nM

*Q* Also need Cn1c(=O)n(C2CCC(=O)NC2=O)c2ccc(-c3ccc(N4CCN(Cc5ccc(-c6cccc(Nc7cc(NC8CC8)n8ncc(C(=O)N[C@@H]9C[C@@H]9F)c8n7)c6)nc5)CC4)cc3)cc21 (some centres unmarked) [Example K509] , thanks.
*A* 1 to 10 nM

*Q* Also need CNc1cc(Nc2cccc(C3CCN(C(=O)Cc4cccc5c4n(C)c(=O)n5C4CCC(=O)NC4=O)CC3)c2)nn2c(C(=O)N[C@@H]3C[C@@H]3F)cnc12 (some centres unmarked) [Example K647] , thanks.
*A* > 100 nM

*Q* Also need CNc1cc(Nc2cccc(-c3ccc(CN4CCN(c5ccc(-c6ccc7c(c6)n(C)c(=O)n7C6CCC(=O)NC6=O)cc5)CC4)cn3)c2F)nn2c(C(=O)N[C@@H]3C[C@@H]3F)cnc12 (some centres unmarked) [Example K563] , thanks.
*A* > 100 nM

*Q* Also need CNc1cc(Nc2cccn(-c3ccc(C(=O)NC4CCC(C(=O)N5CCC6(CN(CC#Cc7ccc8c(c7)n(C)c(=O)n8C7CCC(=O)NC7=O)C6)C5)CC4)cn3)c2=O)nn2c(C(=O)N[C@@H]3C[C@@H]3F)cnc12 (some centres unmarked) [Example K384] , thanks.
*A* > 100 nM
